Known red blood cell lysis of a selection of compounds
Test system: red blood cells (mechanically defibrinated sheep blood)
Assay: Hemolysis assay (cell lysis)
Format: cell-based
Set-up: unit not given here
Conditions: Concentration 0.25 μM; 1 hour, 37° C.
RECORDED_ENDPOINT: red blood cell lysis

CHEMICAL_SMILES: COc1cc(CCc2ccc(C(C)(C)C)c(O)c2)ccc1C(C)(C)C
REPORTED_VALUE: 0.13
--
CHEMICAL_SMILES: COc1cccc(CCc2ccccc2O)c1
REPORTED_VALUE: 0.03
--
CHEMICAL_SMILES: CC(C)(C)c1ccc(CCc2ccc(C(C)(C)C)c(O)c2)cc1O
REPORTED_VALUE: 0.02
--
CHEMICAL_SMILES: CC(C)(C)c1ccc(CCc2cccc(O)c2)cc1O
REPORTED_VALUE: 0.11
--
CHEMICAL_SMILES: CC(C)(C)c1ccc(Cc2ccc(C(C)(C)C)c(O)c2)cc1O
REPORTED_VALUE: 0.13
